# experiment.notes: Half-life in human plasma
# Format: ADME, cell-free
metric: half-life (min)
Field format: number, assumed min, no unit text.

get_value(item= CN[C@H](CC(C)C)C(=O)N[C@H]1C(=O)N[C@@H](CC(N)=O)C(=O)N[C@H]2C(=O)N[C@H]3C(=O)N[C@H](C(=O)N[C@H](C(=O)O)c4cc(O)cc(O)c4-c4cc3ccc4O)[C@H](O)c3ccc(c(Cl)c3)Oc3cc2cc(c3OC2OC(CO)C(O)C(O)C2OC2CC(C)(NC(=O)OCc3cc(C)c(OC(=O)CNC(=O)COCCO)c(C)c3)C(O)C(C)O2)Oc2ccc(cc2Cl)[C@H]1O (stereo partly specified) , readout=half-life) returns 1620

Sourced from ChEMBL document CHEMBL1145985
